Data origin: patent US20190382488A1

Molecular target: T1, recombinant human CD8 (rhCD8) (human, UniProt P01732 22-182)
T1 construct: Soluble purified recombinant protein; also called purified recombinant human CD8 protein; soluble CD8
T1 sequence (P01732 22-182 limits assumed): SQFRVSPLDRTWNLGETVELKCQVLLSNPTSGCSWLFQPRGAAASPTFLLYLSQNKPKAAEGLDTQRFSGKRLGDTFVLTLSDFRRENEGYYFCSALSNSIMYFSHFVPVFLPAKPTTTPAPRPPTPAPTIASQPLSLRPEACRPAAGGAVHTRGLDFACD
Test: SPR (BIAcore), minibody captured via anti-human IgG Fc, hCD8 analyte at 50 nM
endpoint.name: koff (s⁻¹)
# unit: s⁻¹ | format: bare number

Record request: koff value, item IAb_Mb1b_CD8 (other, also called IAb M1b CD8) DVQITQSPSSLSASVGDRVTITCRTSRSISQYLAWYQQKPGKVPKLLIYSGSTLQSGVPSRFSGSGSGTDFTLTISSLQPEDVATYYCQQHNENPLTFGGGTKVEIKGSTSGGGSGGGSGGGGSSEVQLVESGGGLVQPGGSLRLSCAASGFNIKDTYIHFVRQAPGKGLEWIGRIDPANDNTLYASKFQGKATISADTSKNTAYLQMNSLRAEDTAVYYCGRGYGYYVFDHWGQGTLVTVSSEPKSCDKTHTCPPCGGGSSGGGSGGQPREPQVYTLPPSRDELTKNQVSLTCLVKGFYPSDIAVEWESNGQPENNYKTTPPVLDSDGSFFLYSKLTVDKSRWQQGNVFSCSVMHEALHNHYTQKSLSLSPGK 0.0012

Record request: koff value, item IAb_Mb2a_CD8 (other, also called variant 2a) EVQLVESGGGLVQPGGSLRLSCAASGFNIKDTYIHFVRQAPGKGLEWIGRIDPANDNTLYASKFQGKATISADTSKNTAYLQMNSLRAGDTAVYYCGRGYGYYVFDHWGQGTLVTVSSGSTSGGGSGGGSGGGGSSDVQITQSPSSLSASVGDRVTITCRTSRSISQYLAWYQQKPGKVPKLLIYSGSTLQSGVPSRFSGSGSGTDFTLTISSLQPEDVATYYCQQHNENPLTFGGGTKVEIKEPKSCDKTHTCPPCGGGSSGGGSGGQPREPQVYTLPPSRDELTKNQVSLTCLVKGFYPSDIAVEWESNGQPENNYKTTPPVLDSDGSFFLYSKLTVDKSRWQQGNVFSCSVMHEALHNHYTQKSLSLSPGK 0.0022
